Measured values drawn from ChEMBL document CHEMBL5360661 for this set.

# target: Stimulator of interferon genes protein (Homo sapiens)
# Sequence (Q86WV6 whole entry): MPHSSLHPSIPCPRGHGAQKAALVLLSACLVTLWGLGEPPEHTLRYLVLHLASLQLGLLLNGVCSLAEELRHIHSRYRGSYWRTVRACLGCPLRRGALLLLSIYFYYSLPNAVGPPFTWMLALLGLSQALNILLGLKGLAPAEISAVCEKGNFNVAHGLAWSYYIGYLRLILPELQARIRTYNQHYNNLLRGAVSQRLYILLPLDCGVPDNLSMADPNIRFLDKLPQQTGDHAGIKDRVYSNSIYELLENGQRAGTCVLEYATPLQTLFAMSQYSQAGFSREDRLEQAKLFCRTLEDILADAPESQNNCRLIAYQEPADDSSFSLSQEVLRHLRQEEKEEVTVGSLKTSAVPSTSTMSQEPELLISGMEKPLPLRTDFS
# protocol.summary: Agonist activity at STING in PMA-differentiated wildtype human THP1-Blue ISG cells harboring IRF-inducible SEAP reporter construct incubated for 24 hrs by QUANTI-Blue assay
Threshold 10 µM: EC50 strictly smaller gives 1 (yes), otherwise 0 (no).

Check out these entries, answers already filled in.
smiles_string=N#Cc1ccn(-c2ccc(C(=O)Nc3cc(Cl)c(Cl)cc3C(=O)O)nn2)c1 target="Stimulator of interferon genes protein (Homo sapiens)" class_name="1 (yes)"
smiles_string=N#Cc1ccn(-c2ccc(C(=O)Nc3cc(Cl)c(F)cc3C(=O)O)nn2)c1 target="Stimulator of interferon genes protein (Homo sapiens)" class_name="1 (yes)"
smiles_string=C=Cc1cc(NC(=O)c2ccc(-n3ccc(C#N)c3)nn2)c(C(=O)O)cc1F target="Stimulator of interferon genes protein (Homo sapiens)" class_name="0 (no)"

Q) Please state whether EC50 is below 10 µM for N#Cc1ccn(-c2ccc(C(=O)Nc3cc(F)c(Br)cc3C(=O)O)nn2)c1
A) 0 (no)

Q) Regarding Cc1cc(NC(=O)c2ccc(-n3ccc(C#N)c3)nn2)c(C(=O)O)cc1F , kindly confirm whether its EC50 is beneath 10 µM.
A) 0 (no)

Q) Item N#Cc1ccn(-c2ccc(C(=O)Nc3cc(Br)c(Cl)cc3C(=O)O)nn2)c1 : EC50 beneath 10 µM, strictly?
A) 1 (yes)

Q) Does the reported EC50 of N#Cc1ccn(-c2ccc(C(=O)Nc3cc(Br)c(Br)cc3C(=O)O)nn2)c1 stay below 10 µM?
A) 1 (yes)

Q) Dear colleague, could you confirm whether EC50 of N#Cc1ccn(-c2ccc(C(=O)Nc3cc(C4CC4)c(F)cc3C(=O)O)nn2)c1 falls below 10 µM? Thanks.
A) 0 (no)

Q) # check: EC50 < 10 µM for CC#Cc1cc(NC(=O)c2ccc(-n3ccc(C#N)c3)nn2)c(C(=O)O)cc1F
A) 0 (no)
